Entries and their Kd
Target: T1, cSNK:BSA conjugate (bovine, head-to-tail cyclized; conjugated to BSA carrier)
T1 construct: also called BSA-cSNK
T1 sequence (P02769 25-607 limits assumed): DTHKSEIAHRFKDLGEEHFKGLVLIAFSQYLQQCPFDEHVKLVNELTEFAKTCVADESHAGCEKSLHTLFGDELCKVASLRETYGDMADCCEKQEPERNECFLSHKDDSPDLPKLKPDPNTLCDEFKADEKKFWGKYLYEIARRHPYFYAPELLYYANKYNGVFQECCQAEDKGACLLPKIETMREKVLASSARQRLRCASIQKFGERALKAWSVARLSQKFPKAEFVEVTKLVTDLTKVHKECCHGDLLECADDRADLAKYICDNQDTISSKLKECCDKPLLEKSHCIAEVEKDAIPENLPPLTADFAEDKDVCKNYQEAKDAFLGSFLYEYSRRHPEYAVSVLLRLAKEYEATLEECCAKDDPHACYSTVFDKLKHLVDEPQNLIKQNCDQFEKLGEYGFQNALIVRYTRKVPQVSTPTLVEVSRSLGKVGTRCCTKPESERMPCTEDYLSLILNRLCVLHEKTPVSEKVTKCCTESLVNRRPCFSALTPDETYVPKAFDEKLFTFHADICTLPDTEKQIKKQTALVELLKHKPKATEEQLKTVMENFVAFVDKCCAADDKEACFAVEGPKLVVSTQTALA
Assay: BLI (Octet), 1:1 model, BSA-cSNK
Protocol: Biolayer interferometry (Octet Red92, ForteBio) was used to qualitatively/quantitatively assess the interactions between humanized 5E3 and Δ5E3 mAbs to the cSNK:BSA conjugate. […] MAbs were loaded onto sensors and then washed in PBST. Each sensor was associated with one of several cSNK:BSA standards (100 nM to 0 nM) and then washed in PBST. […] For each mAb analyzed, a 1:1 model provided the “best fit”.
The response must be a number in nM with no trailing unit.

Example binders with recorded Kd:
Problem: If you can, please state the reported Kd value of HuΔ5E3-IgG4 (KQR) (antibody, V domains shown, KQR framework 2 variant of hu5E3 on human IgG4) VH: QVQLQQSGPEVKKPGASVKISCKASGYIFTSYYIQWVKQRPGQGLEWIGWIYPGNVNTKYNEKFKGKATLTADKSSSTAYMELSSLTSEDTAVYFCARMDYEAHYWGQGTTVTVSS VL: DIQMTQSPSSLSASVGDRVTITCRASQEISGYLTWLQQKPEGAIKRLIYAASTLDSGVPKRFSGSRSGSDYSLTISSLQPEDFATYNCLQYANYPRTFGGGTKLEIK .
Result: 1.04

Problem: Entry HuΔ5E3-IgG1 (KHA) (antibody, V domains shown, human IgG1; also called huΔ5E3 KHA Mutation) VH: QVQLQQSGPEVKKPGASVKISCKASGYIFTSYYIQWVKHAPGQGLEWIGWIYPGNVNTKYNEKFKGKATLTADKSSSTAYMELSSLTSEDTAVYFCARMDYEAHYWGQGTTVTVSS VL: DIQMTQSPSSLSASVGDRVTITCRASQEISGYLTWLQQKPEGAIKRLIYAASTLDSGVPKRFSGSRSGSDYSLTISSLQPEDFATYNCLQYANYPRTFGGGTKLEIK has what Kd?
Result: 1.52

Moving on to the next binder.
Problem: Can you share its Kd? I mean this binder: hu5E3-IgG1 (antibody, V domains shown, human IgG1/kappa; also called humanized 5E3 IgG1; IHA variant) VH: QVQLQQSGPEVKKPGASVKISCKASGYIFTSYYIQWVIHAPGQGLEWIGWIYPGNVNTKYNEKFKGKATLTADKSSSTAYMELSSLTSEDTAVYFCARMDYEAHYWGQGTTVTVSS VL: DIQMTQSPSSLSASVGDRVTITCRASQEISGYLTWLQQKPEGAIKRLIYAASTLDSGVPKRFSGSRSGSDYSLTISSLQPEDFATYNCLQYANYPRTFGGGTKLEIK
Result: 2.01
